ASSAY_NOTES: Oral bioavilability in Sprague-Dawley rat at 50 mg/kg measured upto 48 hrs by LC-MS/MS analysis
Assay type: ADME, organism-based
CONDITION_CONTEXT: in vivo
Listing of entries alongside the reported bioavailability.

CHEMICAL_STRUCTURE | bioavailability / %
COc1nc(OCc2cccc(-c3ccccc3)c2C)ccc1CNCCNC(C)=O | 39.1
N#Cc1cncc(COc2cc(OCc3cccc(-c4ccc5c(c4)OCCO5)c3C(F)F)ccc2CNCCO)c1 | 65.3

###

ASSAY_NOTES: AUC(0 to infinity) in Sprague-Dawley rat at 10 mg/kg, iv measured upto 48 hrs by LC-MS/MS analysis
Assay type: ADME, organism-based
CONDITION_CONTEXT: in vivo

CHEMICAL_STRUCTURE | AUC(0-inf) / ng·h/mL
N#Cc1cncc(COc2cc(OCc3cccc(-c4ccc5c(c4)OCCO5)c3C(F)F)ccc2CNCCO)c1 | 13900
COc1nc(OCc2cccc(-c3ccccc3)c2C)ccc1CNCCNC(C)=O | 8710

###

ASSAY_NOTES: Tmax in Sprague-Dawley rat at 50 mg/kg, IG measured upto 48 hrs by LC-MS/MS analysis
Assay type: ADME, organism-based
CONDITION_CONTEXT: in vivo, po
MEASUREMENT_KIND: Tmax (h)

CHEMICAL_STRUCTURE | MEASUREMENT_KIND | QUANTITATIVE_RESULT
N#Cc1cncc(COc2cc(OCc3cccc(-c4ccc5c(c4)OCCO5)c3C(F)F)ccc2CNCCO)c1 | Tmax | 2.38
COc1nc(OCc2cccc(-c3ccccc3)c2C)ccc1CNCCNC(C)=O | Tmax | 2.1

###

ASSAY_NOTES: Cmax in Sprague-Dawley rat at 50 mg/kg, IG measured upto 48 hrs by LC-MS/MS analysis
Assay type: ADME, organism-based
CONDITION_CONTEXT: in vivo, po
Listing of entries alongside the reported Cmax.
MEASUREMENT_KIND: Cmax (ng/mL)

CHEMICAL_STRUCTURE | READING_UNIT | QUANTITATIVE_RESULT
N#Cc1cncc(COc2cc(OCc3cccc(-c4ccc5c(c4)OCCO5)c3C(F)F)ccc2CNCCO)c1 | ng/mL | 13500
COc1nc(OCc2cccc(-c3ccccc3)c2C)ccc1CNCCNC(C)=O | ng/mL | 5730

###

ASSAY_NOTES: AUC(0 to t) in Sprague-Dawley rat at 50 mg/kg, IG measured upto 48 hrs by LC-MS/MS analysis
Type: ADME, organism-based
CONDITION_CONTEXT: in vivo, po

CHEMICAL_STRUCTURE | AUC(0-t) at 48 h [ng·h/mL]
N#Cc1cncc(COc2cc(OCc3cccc(-c4ccc5c(c4)OCCO5)c3C(F)F)ccc2CNCCO)c1 | 41800
COc1nc(OCc2cccc(-c3ccccc3)c2C)ccc1CNCCNC(C)=O | 16800

###

ASSAY_NOTES: AUC(0 to infinity) in Sprague-Dawley rat at 50 mg/kg, IG measured upto 48 hrs by LC-MS/MS analysis
Assay type: ADME, organism-based
CONDITION_CONTEXT: in vivo, po
MEASUREMENT_KIND: AUC(0-inf) (ng·h/mL)

CHEMICAL_STRUCTURE | MEASUREMENT_KIND | READING_UNIT | QUANTITATIVE_RESULT
N#Cc1cncc(COc2cc(OCc3cccc(-c4ccc5c(c4)OCCO5)c3C(F)F)ccc2CNCCO)c1 | AUC(0-inf) | ng·h/mL | 42000
COc1nc(OCc2cccc(-c3ccccc3)c2C)ccc1CNCCNC(C)=O | AUC(0-inf) | ng·h/mL | 16900
